Data origin: patent US11524938B2

# TARGET_ENTITY: UniProtKB Q99571
# Sequence (Q99571 whole entry): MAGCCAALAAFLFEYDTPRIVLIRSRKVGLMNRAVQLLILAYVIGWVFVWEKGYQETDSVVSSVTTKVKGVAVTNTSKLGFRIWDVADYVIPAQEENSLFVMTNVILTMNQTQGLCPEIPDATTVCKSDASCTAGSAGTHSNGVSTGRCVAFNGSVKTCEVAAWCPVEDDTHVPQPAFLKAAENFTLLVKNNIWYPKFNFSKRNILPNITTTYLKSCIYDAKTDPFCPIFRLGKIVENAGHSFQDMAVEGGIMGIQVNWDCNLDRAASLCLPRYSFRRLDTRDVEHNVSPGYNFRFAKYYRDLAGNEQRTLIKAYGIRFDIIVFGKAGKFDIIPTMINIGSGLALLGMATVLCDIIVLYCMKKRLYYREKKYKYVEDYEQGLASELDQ
# PROCEDURE_TEXT: Human P2X4 HEK Cell FLIPR Assay
# SETTINGS: HEK293 cells, agonist Bz-ATP at EC80; individual values listed where some fall outside detection range
# Procedure: HEK293 cells stably expressing human P2X4 were plated in poly-D-lysine-coated 384-well plates at a seeding density of 30000 cells/well and incubated overnight. P2X4 function was assessed by measuring intracellular calcium changes using the calcium-chelating dye Fluo8-AM (Molecular Devices) on a fluorescent imaging plate reader (FLEX/FLIPR station; Molecular Devices). […] The EC80 value of Bz-ATP was determined each assay day prior to compound profiling. […]
The entries below are paired with their reported IC50.
MEASURED_ATTRIBUTE: IC50 (nM)

MOLECULE	MEASURED_ATTRIBUTE	VALUE_UNITS	RECORDED_MEASUREMENT
Cc1ccccc1CC(=O)Nc1ccc(-n2cc(Cl)cn2)c(S(N)(=O)=O)c1 [Example 173]	IC50	nM	28
NS(=O)(=O)c1cc(NC(=O)Cc2ccccc2Cl)ccc1-n1cc(C2CC2)cn1 [Example 478]	IC50	nM	47
CC(C)(O)c1nc(-c2ccc(NC(=O)Cc3ccccc3Cl)cc2S(N)(=O)=O)cs1 [Example 436]	IC50	nM	12500
COc1ncc(-c2ccc(NC(=O)Cc3ccccc3Cl)cc2S(N)(=O)=O)cn1 [Example 285]	IC50	nM	246
